Target: Histone deacetylase 2 (Homo sapiens, UniProt Q92769)
Sequence (Q92769 whole entry): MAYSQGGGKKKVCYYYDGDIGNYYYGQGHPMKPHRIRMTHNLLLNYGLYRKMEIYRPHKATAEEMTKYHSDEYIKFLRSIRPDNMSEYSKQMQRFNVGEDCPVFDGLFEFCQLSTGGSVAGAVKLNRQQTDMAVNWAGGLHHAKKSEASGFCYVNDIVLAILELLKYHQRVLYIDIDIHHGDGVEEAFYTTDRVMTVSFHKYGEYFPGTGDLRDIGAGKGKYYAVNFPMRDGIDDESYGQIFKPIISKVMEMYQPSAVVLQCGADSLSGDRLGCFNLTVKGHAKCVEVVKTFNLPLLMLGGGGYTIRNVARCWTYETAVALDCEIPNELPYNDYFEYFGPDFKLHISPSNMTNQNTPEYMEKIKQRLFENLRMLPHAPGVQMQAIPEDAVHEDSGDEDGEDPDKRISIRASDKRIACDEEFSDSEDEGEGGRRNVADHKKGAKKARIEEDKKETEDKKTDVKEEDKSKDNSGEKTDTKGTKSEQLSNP
Test: Inhibition of recombinant full-length human HDAC2 using FITC-H3K27(Ac)-NH2 as substrate by electrophoretic mobility shift assay
IC50 values, listed per item

Examples from the recorded data:
INSERT INTO results (smiles_text, measure_name, measured) VALUES
  ('COc1cc(C(=O)NO)ccc1Cn1ccc2cc(C(=O)NCC34C[C@H]5C[C@@H](C3)C[C@@H](C4)C5)ccc21', 'IC50', '> 10 µM'),
  ('O=C(NCC12C[C@H]3C[C@@H](C1)C[C@@H](C2)C3)c1ccc2c(ccn2Cc2ccc(C(=O)NO)c(Br)c2)c1', 'IC50', '> 10 µM'),
  ('O=C(NCC12C[C@H]3C[C@@H](C1)C[C@@H](C2)C3)c1ccc2c(ccn2Cc2ccc(C(=O)NO)c(Cl)c2)c1', 'IC50', '> 10 µM');

### Prompt Would you mind telling me what IC50 value was observed for O=C(NCC12C[C@H]3C[C@@H](C1)C[C@@H](C2)C3)c1ccc2c(ccn2Cc2ccc(C(=O)NO)c(F)c2)c1 ?
### Response 3.4 µM

### Prompt IC50 for O=C(NO)c1ccc(Cn2ccc3cc(C(=O)NCC45C[C@H]6C[C@@H](C4)C[C@@H](C5)C6)ccc32)c(F)c1 ?
### Response 1.02 µM

### Prompt Consider the compound shown here: O=C(NCC12C[C@H]3C[C@@H](C1)C[C@@H](C2)C3)c1ccc2c(ccn2Cc2ccc(C(=O)NO)c(O)c2)c1 What is its recorded IC50?
### Response > 10 µM

### Prompt Endpoint output: IC50 of O=C(NO)c1ccc(Cn2ccc3cc(C(=O)NCC45C[C@H]6C[C@@H](C4)C[C@@H](C5)C6)ccc32)cc1 . Value?
### Response 1.9 µM

### Prompt Give its IC50 value. Item: CCOc1cc(Cn2ccc3cc(C(=O)NCC45C[C@H]6C[C@@H](C4)C[C@@H](C5)C6)ccc32)ccc1C(=O)NO
### Response > 10 µM

### Prompt Can you look up the measured IC50 of Cc1cc(Cn2ccc3cc(C(=O)NCC45C[C@H]6C[C@@H](C4)C[C@@H](C5)C6)ccc32)ccc1C(=O)NO for me?
### Response > 10 µM

---

Molecular target: Histone deacetylase 7 (Homo sapiens)
Sequence (Q8WUI4 whole entry): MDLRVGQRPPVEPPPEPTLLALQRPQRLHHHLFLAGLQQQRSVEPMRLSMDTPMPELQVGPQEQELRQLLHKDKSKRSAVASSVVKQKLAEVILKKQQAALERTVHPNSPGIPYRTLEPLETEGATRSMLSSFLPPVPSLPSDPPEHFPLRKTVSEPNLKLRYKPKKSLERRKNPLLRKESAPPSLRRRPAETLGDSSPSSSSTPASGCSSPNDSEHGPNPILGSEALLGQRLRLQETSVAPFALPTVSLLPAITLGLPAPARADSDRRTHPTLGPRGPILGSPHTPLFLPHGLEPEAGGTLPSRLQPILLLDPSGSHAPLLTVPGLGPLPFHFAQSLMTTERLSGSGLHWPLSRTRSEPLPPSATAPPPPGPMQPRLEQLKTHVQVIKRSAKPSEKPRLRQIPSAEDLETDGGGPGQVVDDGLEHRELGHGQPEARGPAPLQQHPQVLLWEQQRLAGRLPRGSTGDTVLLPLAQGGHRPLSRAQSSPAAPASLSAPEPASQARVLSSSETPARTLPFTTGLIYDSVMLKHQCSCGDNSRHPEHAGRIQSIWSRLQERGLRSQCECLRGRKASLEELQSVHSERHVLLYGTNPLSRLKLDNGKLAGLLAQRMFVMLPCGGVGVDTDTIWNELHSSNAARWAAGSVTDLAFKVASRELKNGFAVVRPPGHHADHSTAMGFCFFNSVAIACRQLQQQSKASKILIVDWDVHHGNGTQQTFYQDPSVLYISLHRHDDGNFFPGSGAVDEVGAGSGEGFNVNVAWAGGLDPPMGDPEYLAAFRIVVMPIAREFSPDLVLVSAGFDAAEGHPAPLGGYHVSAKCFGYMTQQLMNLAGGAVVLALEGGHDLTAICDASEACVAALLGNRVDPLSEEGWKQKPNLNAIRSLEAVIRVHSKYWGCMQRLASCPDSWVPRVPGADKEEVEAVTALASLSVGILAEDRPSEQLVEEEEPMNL
Experiment: Inhibition of recombinant full-length human HDAC7 using FAM-RHKK (trifluor-Ac)-NH2 as substrate by electrophoretic mobility shift assay
Measure Name: IC50 (nM)

(P) CCOc1cc(Cn2ccc3cc(C(=O)NCC45C[C@H]6C[C@@H](C4)C[C@@H](C5)C6)ccc32)ccc1C(=O)NO
(Q) O=C(NCC12C[C@H]3C[C@@H](C1)C[C@@H](C2)C3)c1ccc2c(ccn2Cc2ccc(C(=O)NO)c(Cl)c2)c1
### Prompt So which one has the bigger IC50 here, P or Q ? Select an item and report its label.
### Response P
(P: 4030 nM, Q: 570 nM)

---

Molecular target: Protein deacetylase HDAC6 (Homo sapiens)
Sequence (Q9UBN7 whole entry): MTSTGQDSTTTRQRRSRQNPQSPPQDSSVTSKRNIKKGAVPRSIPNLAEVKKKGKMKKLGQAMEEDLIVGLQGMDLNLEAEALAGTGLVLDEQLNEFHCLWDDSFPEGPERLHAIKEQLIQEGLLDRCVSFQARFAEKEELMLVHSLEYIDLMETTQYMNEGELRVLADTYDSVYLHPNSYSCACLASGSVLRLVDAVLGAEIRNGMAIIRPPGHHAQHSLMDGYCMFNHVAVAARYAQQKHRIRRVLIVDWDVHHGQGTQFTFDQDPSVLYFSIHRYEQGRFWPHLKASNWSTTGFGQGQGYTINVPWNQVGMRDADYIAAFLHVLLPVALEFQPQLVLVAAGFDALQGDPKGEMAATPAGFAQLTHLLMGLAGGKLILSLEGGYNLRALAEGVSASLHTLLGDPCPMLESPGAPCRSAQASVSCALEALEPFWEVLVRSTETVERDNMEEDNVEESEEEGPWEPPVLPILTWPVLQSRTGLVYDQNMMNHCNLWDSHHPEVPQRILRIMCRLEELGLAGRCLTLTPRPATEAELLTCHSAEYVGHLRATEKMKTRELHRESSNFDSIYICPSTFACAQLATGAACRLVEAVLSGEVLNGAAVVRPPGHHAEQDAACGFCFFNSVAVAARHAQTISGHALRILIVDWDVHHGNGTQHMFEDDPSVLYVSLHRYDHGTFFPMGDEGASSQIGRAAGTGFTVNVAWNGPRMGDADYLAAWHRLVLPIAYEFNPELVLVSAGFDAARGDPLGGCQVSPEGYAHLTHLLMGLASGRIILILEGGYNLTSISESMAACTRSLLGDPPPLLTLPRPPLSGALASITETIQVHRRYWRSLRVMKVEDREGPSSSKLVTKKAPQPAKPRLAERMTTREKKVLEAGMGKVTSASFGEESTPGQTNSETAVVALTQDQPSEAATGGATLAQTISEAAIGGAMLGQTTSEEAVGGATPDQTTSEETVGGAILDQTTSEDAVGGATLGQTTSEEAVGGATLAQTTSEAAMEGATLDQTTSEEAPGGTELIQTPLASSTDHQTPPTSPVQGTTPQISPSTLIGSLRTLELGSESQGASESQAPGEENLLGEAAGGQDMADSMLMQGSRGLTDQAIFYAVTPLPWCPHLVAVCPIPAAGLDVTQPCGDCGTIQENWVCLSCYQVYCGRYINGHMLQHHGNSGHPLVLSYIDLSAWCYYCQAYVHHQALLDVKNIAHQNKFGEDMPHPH
Assay: Inhibition of recombinant full-length human HDAC6 using FAM-RHKK(Ac)-NH2 as substrate by electrophoretic mobility shift assay
Measure Name: IC50 (nM)

(I) COc1cc(C(=O)NO)ccc1Cn1ccc2cc(C(=O)NCC34C[C@H]5C[C@@H](C3)C[C@@H](C4)C5)ccc21
(II) O=C(NCC12C[C@H]3C[C@@H](C1)C[C@@H](C2)C3)c1ccc2c(ccn2Cc2ccc(C(=O)NO)c(Cl)c2)c1
(III) O=C(NO)c1ccc(Cn2ccc3cc(C(=O)NCC45C[C@H]6C[C@@H](C4)C[C@@H](C5)C6)ccc32)c(F)c1
### Prompt Rank by decreasing IC50 the items listed here. Labels, ranked as asked.
### Response I, II, III

---

Molecular target: Histone deacetylase 8 (Homo sapiens, UniProt Q9BY41)
Sequence (Q9BY41 whole entry): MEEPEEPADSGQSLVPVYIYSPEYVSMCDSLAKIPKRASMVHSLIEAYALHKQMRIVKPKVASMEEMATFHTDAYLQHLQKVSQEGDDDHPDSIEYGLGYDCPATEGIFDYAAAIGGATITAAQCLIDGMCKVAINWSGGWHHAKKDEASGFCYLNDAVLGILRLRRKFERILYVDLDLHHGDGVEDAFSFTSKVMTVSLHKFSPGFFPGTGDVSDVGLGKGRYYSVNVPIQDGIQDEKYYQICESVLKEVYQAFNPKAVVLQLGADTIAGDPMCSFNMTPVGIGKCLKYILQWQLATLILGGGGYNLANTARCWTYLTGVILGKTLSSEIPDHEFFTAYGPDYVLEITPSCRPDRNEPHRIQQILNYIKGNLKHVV
Assay: Inhibition of recombinant full-length human HDAC8 using FAM-RHKK(Ac)-NH2 as substrate by electrophoretic mobility shift assay
Measure Name: IC50 (µM)

INSERT INTO assay_data (smiles_text, target_entity, measure_name, unit_spec, measured) VALUES
  ('Cc1cc(Cn2ccc3cc(C(=O)NCC45C[C@H]6C[C@@H](C4)C[C@@H](C5)C6)ccc32)ccc1C(=O)NO', 'Histone deacetylase 8 (Homo sapiens, UniProt Q9BY41)', 'IC50', 'µM', 2.06);

(P) O=C(NO)c1ccc(Cn2ccc3cc(C(=O)NCC45C[C@H]6C[C@@H](C4)C[C@@H](C5)C6)ccc32)cc1
(Q) O=C(NCC12C[C@H]3C[C@@H](C1)C[C@@H](C2)C3)c1ccc2c(ccn2Cc2ccc(C(=O)NO)c(Cl)c2)c1
(R) COc1cc(C(=O)NO)ccc1Cn1ccc2cc(C(=O)NCC34C[C@H]5C[C@@H](C3)C[C@@H](C4)C5)ccc21
### Prompt Exam item: list the entries in increasing order of IC50. Return the labels ranked in the requested order, please.
### Response R, Q, P
(R: 0.16 µM, Q: 0.41 µM, P: 1.95 µM)

---

Target: Histone deacetylase 9 (Homo sapiens, UniProt Q9UKV0)
Sequence (Q9UKV0 whole entry): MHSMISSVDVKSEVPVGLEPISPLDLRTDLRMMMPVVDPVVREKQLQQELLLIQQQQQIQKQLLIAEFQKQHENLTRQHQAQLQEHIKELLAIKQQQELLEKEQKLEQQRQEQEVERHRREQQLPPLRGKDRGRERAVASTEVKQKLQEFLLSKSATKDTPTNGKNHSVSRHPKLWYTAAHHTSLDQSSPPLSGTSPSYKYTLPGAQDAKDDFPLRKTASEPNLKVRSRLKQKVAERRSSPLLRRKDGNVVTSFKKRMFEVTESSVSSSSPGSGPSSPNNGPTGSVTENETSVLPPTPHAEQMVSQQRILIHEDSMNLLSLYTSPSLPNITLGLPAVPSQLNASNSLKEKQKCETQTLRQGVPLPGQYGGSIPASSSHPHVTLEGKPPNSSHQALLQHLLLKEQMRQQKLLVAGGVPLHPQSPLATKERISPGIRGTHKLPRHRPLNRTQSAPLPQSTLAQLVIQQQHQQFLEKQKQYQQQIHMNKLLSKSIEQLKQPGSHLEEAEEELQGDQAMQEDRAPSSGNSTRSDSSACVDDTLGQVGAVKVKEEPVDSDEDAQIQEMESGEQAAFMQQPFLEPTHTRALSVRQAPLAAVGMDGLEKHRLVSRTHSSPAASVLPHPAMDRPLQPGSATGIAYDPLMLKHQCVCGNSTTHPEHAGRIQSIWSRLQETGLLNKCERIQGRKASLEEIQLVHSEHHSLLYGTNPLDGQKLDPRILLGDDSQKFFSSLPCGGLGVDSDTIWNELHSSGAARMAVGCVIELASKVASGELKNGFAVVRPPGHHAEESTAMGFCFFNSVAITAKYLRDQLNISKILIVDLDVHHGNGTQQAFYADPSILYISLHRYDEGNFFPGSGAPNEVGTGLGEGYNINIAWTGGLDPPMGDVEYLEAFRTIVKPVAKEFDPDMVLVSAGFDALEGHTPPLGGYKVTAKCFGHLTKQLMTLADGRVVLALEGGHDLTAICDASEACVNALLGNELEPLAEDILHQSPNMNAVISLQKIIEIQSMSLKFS
Assay: Inhibition of recombinant full-length human HDAC9 using FAM-RHKK (trifluor-Ac)-NH2 as substrate by electrophoretic mobility shift assay
Measure Name: IC50 (µM)

Solved entries (count: 2):
INSERT INTO assay_data (smiles_text, target_entity, measure_name, unit_spec, measured) VALUES
  ('O=C(NO)c1ccc(Cn2ccc3cc(C(=O)NCC45C[C@H]6C[C@@H](C4)C[C@@H](C5)C6)ccc32)cc1', 'Histone deacetylase 9 (Homo sapiens, UniProt Q9UKV0)', 'IC50', 'µM', 5.25),
  ('COc1cc(C(=O)NO)ccc1Cn1ccc2cc(C(=O)NCC34C[C@H]5C[C@@H](C3)C[C@@H](C4)C5)ccc21', 'Histone deacetylase 9 (Homo sapiens, UniProt Q9UKV0)', 'IC50', 'µM', 2.84);

(1) O=C(NCC12C[C@H]3C[C@@H](C1)C[C@@H](C2)C3)c1ccc2c(ccn2Cc2ccc(C(=O)NO)c(Br)c2)c1
(2) O=C(NO)c1ccc(Cn2ccc3cc(C(=O)NCC45C[C@H]6C[C@@H](C4)C[C@@H](C5)C6)ccc32)c(F)c1
(3) O=C(NCC12C[C@H]3C[C@@H](C1)C[C@@H](C2)C3)c1ccc2c(ccn2Cc2ccc(C(=O)NO)c(Cl)c2)c1
### Prompt Please order the records by their reported IC50, lowest number first. Your reply should list the labels following the order given in the request.
### Response 2, 3, 1
(2: 2.09 µM, 3: 4.53 µM, 1: 9.31 µM)
